Target: Ataxin-2 (Homo sapiens) (UniProt Q99700)
Sequence (Q99700 whole entry): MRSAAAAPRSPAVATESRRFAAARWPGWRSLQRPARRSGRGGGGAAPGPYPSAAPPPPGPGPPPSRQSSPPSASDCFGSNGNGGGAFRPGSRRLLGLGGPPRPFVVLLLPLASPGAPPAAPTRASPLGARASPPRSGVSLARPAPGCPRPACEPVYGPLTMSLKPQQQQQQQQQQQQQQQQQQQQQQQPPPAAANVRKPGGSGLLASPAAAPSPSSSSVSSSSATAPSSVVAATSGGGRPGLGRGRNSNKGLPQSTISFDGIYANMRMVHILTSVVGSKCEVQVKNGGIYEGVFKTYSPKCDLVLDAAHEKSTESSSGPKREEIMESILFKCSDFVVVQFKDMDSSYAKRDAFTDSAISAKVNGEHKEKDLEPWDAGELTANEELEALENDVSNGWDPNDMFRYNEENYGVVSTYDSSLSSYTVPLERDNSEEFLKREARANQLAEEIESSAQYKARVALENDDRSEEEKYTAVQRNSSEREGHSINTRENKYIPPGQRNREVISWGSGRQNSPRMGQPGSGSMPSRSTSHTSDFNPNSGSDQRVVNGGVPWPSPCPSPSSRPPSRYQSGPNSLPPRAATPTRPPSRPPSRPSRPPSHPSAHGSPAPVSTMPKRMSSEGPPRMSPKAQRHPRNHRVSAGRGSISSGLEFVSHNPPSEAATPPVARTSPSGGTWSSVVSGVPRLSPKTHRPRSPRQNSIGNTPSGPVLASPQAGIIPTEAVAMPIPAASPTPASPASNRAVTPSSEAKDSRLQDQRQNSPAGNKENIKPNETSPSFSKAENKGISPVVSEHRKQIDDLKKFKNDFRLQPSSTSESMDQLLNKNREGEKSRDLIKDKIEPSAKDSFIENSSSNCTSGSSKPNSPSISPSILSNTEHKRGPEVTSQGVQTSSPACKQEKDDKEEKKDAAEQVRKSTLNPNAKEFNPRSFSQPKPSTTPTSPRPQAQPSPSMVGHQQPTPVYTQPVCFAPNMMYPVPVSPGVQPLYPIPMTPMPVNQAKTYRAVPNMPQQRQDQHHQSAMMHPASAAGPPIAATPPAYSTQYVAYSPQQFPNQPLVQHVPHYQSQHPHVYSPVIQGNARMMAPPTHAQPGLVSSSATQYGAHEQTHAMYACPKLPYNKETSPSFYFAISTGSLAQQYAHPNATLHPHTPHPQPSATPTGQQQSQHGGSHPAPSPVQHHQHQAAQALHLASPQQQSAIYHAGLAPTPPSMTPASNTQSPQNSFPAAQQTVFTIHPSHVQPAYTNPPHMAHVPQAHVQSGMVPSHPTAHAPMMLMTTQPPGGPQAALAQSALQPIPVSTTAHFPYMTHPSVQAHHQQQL
Assay: qHTS for Inhibitors of ATXN expression.
Assay type: functional
Hit rate of the full screen: of about 400,000 compounds, about 2,100 (0.53%) were called active. Another 14% or so got no clear call; they are omitted. The rule behind the calls is not given here. Many of the other results were omitted from the sample, so actives are more common in it than they were.
Use one of these outcomes when replying: active, inactive

Sample answers from the record:
compound: CN(C)CCCNc1cc(C(C)(C)C)nc2c(-c3ccc(Cl)cc3)cnn12
assigned-label: active

compound: Cc1ccccc1N(CC(=O)NC(C)(C)C)C(=O)CCC(=O)Nc1nccs1
assigned-label: inactive

compound: O=C(NC1CCN(Cc2ccccc2)CC1)c1ccc(Cn2c(=S)[nH]c3ccc(N4CCOCC4)cc3c2=O)cc1
assigned-label: inactive

compound: Cc1cc(C)n(-c2cc(C(C)(C)C)nc3c(-c4ccccc4)cnn23)n1
assigned-label: inactive

Now turn to the next compound.
Incoming: Given O=C1CCC(=O)N1c1nc2n(n1)C(c1ccccc1)C=C(c1ccc(Br)cc1)N2 (stereo not given) , state the outcome it received in this test.
Outgoing: inactive

###

Biological target: Ataxin-2 (Homo sapiens)
Assay: qHTS for Inhibitors of ATXN expression.
Type: functional
Hit rate of the full screen: of about 400,000 compounds, about 2,100 (0.53%) were called active. Roughly 14% stayed inconclusive and do not appear here. This excerpt belongs to a sample that is enriched for actives.
reported-metric: Potency

structure: COc1cccc(NC(=O)CN(C)C(=O)[C@@H]2CCCN2C(=O)c2cccs2)c1
Potency: inactive
--
structure: COCCCn1/c(=N/C(=O)c2ccncc2)c(C#N)cc2c(=O)n3cccc(C)c3nc21
Potency: inactive
--
structure: N#Cc1sc2nc(-c3cccs3)cc(-c3ccccc3)c2c1N
Potency: inactive
--
structure: NS(=O)(=O)c1ccc(CCNS(=O)(=O)c2ccc(Cl)s2)cc1
Potency: inactive
--
structure: COc1ccc(C(=O)/C(=C\c2ccco2)N2C=CC=CC2=C(C#N)C#N)cc1
Potency: 1.78 µM (active)

Consider now this further compound.
Lab book: Potency of `COc1cc([N+](=O)[O-])cc(/C=C2/SC(=S)N(Cc3ccccc3)C2=O)c1O` noted as 20 µM (active)

###

Molecular target: Ataxin-2 (Homo sapiens) (UniProt Q99700)
Assay: qHTS for Inhibitors of ATXN expression.
Type: functional
About 2,100 (0.53%) of roughly 400,000 compounds were called active. Another 14% or so got no clear call; they are omitted. No rule for the calls is given here. This is one part of a sample in which actives are shown more often than they occur.
Use one of these outcomes when replying: Yes (active), No (inactive)

compound: Cc1ccc(S(=O)(=O)NCCCCCC(=O)NCCc2ccccc2)cc1
assay-target: Ataxin-2 (Homo sapiens) (UniProt Q99700)
assigned-label: No

compound: Cc1ccc(-c2nnc(Nc3cccc(O)c3)c3ccccc23)cc1S(=O)(=O)NCC1CCCO1 (stereo not given)
assay-target: Ataxin-2 (Homo sapiens) (UniProt Q99700)
assigned-label: Yes

Now turn to the next compound.
Incoming: Given COc1ccc(OC)c([N+]2=C3SCCCN3C(O)(c3ccccc3)C2)c1 (stereo not given) , state the outcome it received in this test.
Outgoing: No

###

Target: Ataxin-2 (Homo sapiens)
Assay: qHTS for Inhibitors of ATXN expression.
Type: functional
Screen size: about 400,000 compounds; about 2,100 (0.53%) were called active. Inconclusive results (about 14%) are left out. No rule for the calls is given here. The entries come from a sample that favours actives as a whole.
Use one of these outcomes when replying: Yes = active, No = inactive

structure: CCN1C(=O)c2cccc3c(Cl)ccc(c23)C1=O
assigned-label: No

structure: CCc1cccc2sc(N3CCN(C(=O)c4ccc([N+](=O)[O-])o4)CC3)nc12
assigned-label: Yes

Incoming: Given `O=C(NCCCNC(=O)c1cnccn1)c1ccc(Br)cc1` , state the outcome it received in this test.
Outgoing: No

Incoming: Given `Cc1ccccc1-c1ccc(/C=C2/SC(N3CCOCC3)=NC2=O)o1` , state the outcome it received in this test.
Outgoing: No

Incoming: Given `CS(=O)(=O)c1nc([N+](=O)[O-])nn1CCCc1ccccc1` , state the outcome it received in this test.
Outgoing: Yes

Incoming: Given `Cc1noc(C)c1CSCC(=O)Nc1ccc(S(C)(=O)=O)cc1` , state the outcome it received in this test.
Outgoing: No

Incoming: Given `C=CCC[C@@H](Cc1ccc(F)cc1)C(=O)OC[C@@H](C)NC(=O)[C@H](CC=C)CC(=O)N(CCO)Cc1ccccc1` , state the outcome it received in this test.
Outgoing: Yes

###

Target: Ataxin-2 (Homo sapiens) (UniProt Q99700)
Test: qHTS for Inhibitors of ATXN expression.
Format: functional
The whole screen tested about 400,000 compounds, of which about 2,100 (0.53%) were called active. Another 14% or so got no clear call; they are omitted. Shown is part of a subset that was picked to be rich in actives.
reported-metric: Potency

Below, 10 compounds whose answers are already recorded.
compound: CCCCN(CCCC)CC(O)Cn1c2ccccc2c(=O)c2ccccc21 (configuration not stated)
Potency: inactive

compound: Cc1cc(S(=O)(=O)NC2CC(C)(C)NC(C)(C)C2)c(Cl)cc1Cl
Potency: inactive

compound: CC(C)(C)N(NS(=O)(=O)c1ccc(F)cc1)c1ccccc1
Potency: inactive

compound: Cc1cc(C)c2cc(CN(Cc3nnnn3C3CCCCC3)CC3CCCO3)c(O)nc2c1 (configuration not stated)
Potency: 22.4 µM (active)

compound: COc1ccc(-c2nc(C#N)c(N3CCCCC3)o2)cc1
Potency: inactive

compound: Oc1ncnc(O)c1C(c1ccc(F)cc1)c1c(O)ncnc1O
Potency: inactive

compound: CN(C(=O)COC(=O)c1cccnc1O)C1CCCCC1
Potency: inactive

compound: CN(CCO)c1nc(NCc2ccccc2)c2cnn(C)c2n1
Potency: inactive

compound: Cc1ccc(S(=O)(=O)N(CC(O)Cn2c3ccccc3c3ccccc32)c2cccc(C(=O)NCCO)c2)cc1 (configuration not stated)
Potency: 35.5 µM (active)

compound: CCCCN(C)CC(O)Cn1cc(/C=C/C(=O)c2ccc(C)cc2)c2ccccc21 (configuration not stated)
Potency: inactive

Lab book: Potency of COc1cccc(NC(=O)N2CCCC2C(=O)Nc2cc(C)ccc2OC)c1 (configuration not stated) noted as inactive

Lab book: Potency of `CC(C)(C)OC(=O)N[C@@H](Cc1ccccc1)c1nnc(S(=O)(=O)Cc2cccc(F)c2)o1` noted as 31.6 µM (active)

Lab book: Potency of `Cc1ccccc1CS(=O)(=O)c1nnc([C@H](Cc2ccccc2)NC(=O)OC(C)(C)C)o1` noted as 35.5 µM (active)

###

Molecular target: Ataxin-2 (Homo sapiens)
Test: qHTS for Inhibitors of ATXN expression.
Format: functional
Screen size: about 400,000 compounds; about 2,100 (0.53%) were called active. Inconclusive results (about 14%) are left out. How the calls were made is not given here. Only a selection was taken, and actives are over-represented in it overall.
Use one of these outcomes when replying: class 1 = active, class 0 = inactive

Sample answers from the record:
compound: COc1cc([C@@H]2c3cc4c(cc3[C@@H](O)[C@H]3COC(=O)[C@H]23)OCO4)cc(OC)c1O[Si](C)(C)C(C)(C)C
assigned-label: class 1

compound: COc1ccc(C(=O)CCN2CCc3cc(OC)c(OC)cc3C2)cc1
assigned-label: class 1

Incoming: Given `Cc1ccc(CS(=O)(=O)c2ncc(Cl)c(C(=O)Nc3nc4ccc(C)cc4s3)n2)cc1` , state the outcome it received in this test.
Outgoing: class 1

###

Target: Ataxin-2 (Homo sapiens) (UniProt Q99700)
Test: qHTS for Inhibitors of ATXN expression.
Type: functional
The whole screen tested about 400,000 compounds, of which about 2,100 (0.53%) were called active. Roughly 14% stayed inconclusive and do not appear here. How the calls were made is not given here. For the sample, actives were picked, then their nearest neighbours and some compounds at random.
Use one of these outcomes when replying: active, inactive

compound: Cc1c(C)c(C)c(S(=O)(=O)N2CCNCC2)c(C)c1C
assigned-label: inactive

Incoming: Given `O=C(NC1=NCCS1)c1cc(-c2ccc(-c3ccccc3)cc2)nc2ccccc12` , state the outcome it received in this test.
Outgoing: inactive

Incoming: Given `Cc1ccccc1/C=C/c1cccc[n+]1C` , state the outcome it received in this test.
Outgoing: inactive

Incoming: Given `S=C(Nc1ccc(Cl)c(Cl)c1)NC1CCN(Cc2ccccc2)CC1` , state the outcome it received in this test.
Outgoing: active

Incoming: Given `COc1cc(/C=C/C(=O)OCC(=O)Nc2ccc([N+](=O)[O-])cc2)ccc1O` , state the outcome it received in this test.
Outgoing: inactive

###

Molecular target: Ataxin-2 (Homo sapiens)
Assay: qHTS for Inhibitors of ATXN expression.
Format: functional
Hit rate of the full screen: of about 400,000 compounds, about 2,100 (0.53%) were called active. Inconclusive results (about 14%) are left out. This excerpt belongs to a sample that is enriched for actives.
reported-metric: Potency

molecule: Cc1c(CCOC(=O)C23CC4CC(CC(C4)C2)C3)sc[n+]1CC#N
Potency: 31.6 µM (active)
//
molecule: CCCCNc1ccc2c3c(cccc13)C(=O)N(CCCC)C2=O
Potency: inactive
//
molecule: O=C(NCc1ccco1)C1CCC(N2C(=O)C3C4CCC(C4)C3C2=O)CC1 (stereo unspecified)
Potency: inactive
//
molecule: OC(CNC1CCCC1)COc1ccc(-c2ccccc2)cc1 (stereo unspecified)
Potency: inactive
//
molecule: CCCSc1ccc(-c2nn(-c3ccccc3)cc2/C=C(/C#N)C(=O)NCCCOC)cc1
Potency: inactive

Lab book: Potency of `COc1ccc(/C=N/NC(=O)CCn2nnc3ccccc32)cc1` noted as inactive

Lab book: Potency of `Cc1cc(NC(=O)CSc2nc3c(cc2C#N)CCCC3)no1` noted as inactive

Lab book: Potency of `Fc1ccc(NC(S)=Nc2nccs2)cc1` noted as inactive

Lab book: Potency of CCCCC1CCC(C(=O)OC(C)C(=O)Nc2ccc(NC(C)=O)cc2)CC1 (stereo unspecified) noted as inactive

Lab book: Potency of `COc1ccccc1C1C2=C(CCCC2=O)N(CC(=O)O)C2=C1C(=O)CCC2` noted as inactive

Lab book: Potency of CC1CCCCC1NC(=O)c1cc2c(=O)n3ccccc3nc2n1C (stereo unspecified) noted as inactive

Lab book: Potency of `Cc1cc(/N=C/C=C2\N(C)c3ccccc3C2(C)C)n(CCC#N)n1` noted as 31.6 µM (active)
